B1: LINE1-full (parent)
chain: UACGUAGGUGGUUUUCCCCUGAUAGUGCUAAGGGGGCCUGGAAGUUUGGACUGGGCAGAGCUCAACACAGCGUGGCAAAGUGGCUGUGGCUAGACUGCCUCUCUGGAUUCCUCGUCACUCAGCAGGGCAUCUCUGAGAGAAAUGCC

- Variants of: B1
- procedureText: self-cleavage, relative activity (ratio to wild type); higher = more cleavage; in vitro, sequencing; the parent is a self-cleaving ribozyme
Would you kindly list self-cleavage for each of these variants?
Write the value as a bare number.

Report self-cleavage for G8A U91C please. 0.69

Entry A77U A140U : reported self-cleavage = ? 1.23

self-cleavage lookup needed for A67G U81A , thanks. 0.63

GET /values?readout=self-cleavage&item= U5C U45A 0.74

Sample U85A A94G — what was its self-cleavage? 0.15

Sample "C28G" — what was its self-cleavage? 0.98

Find the recorded self-cleavage belonging to U1A A31G and report it. 1.26

For the variant A92G A138U , what self-cleavage is on record? 0.11

# get_value(readout='self-cleavage', item= U26C U130A ) 1.35

Which self-cleavage reading was recorded for the variant C17G A141G ? 0.47

What does the record list as self-cleavage for A65U U119G ? 0.45

Could you share which self-cleavage value was measured for A67G G72A ? 0.21

What does the data say about its self-cleavage? Entry: C38A A140G 1.28

// self-cleavage lookup, key: A69G G144A 1.02

Recorded self-cleavage for U47A C113U , please? 1.17

Fill in the blank: the reported self-cleavage of U12G A141U is ____. 1.29

Quick one: self-cleavage for G114A A140C ? 1.27

Name the reported self-cleavage value associated with the variant G21A A140G 1.3

Consider the variant G27A G53A and give its measured self-cleavage. 0.94

Returns the measured self-cleavage for the input variant. Input: U46G G53U 1.73

Value lookup for self-cleavage; key = A67G A138G 0.67

Requested read-out: self-cleavage. Entry: U15C A67C 0.07

Would you kindly share the measured self-cleavage for A57G U73G ? 0.69
